Source of measurements: paper PMC8007570

Biological target: Pf MRNBD wild type (Mre11 + Rad50 NBD) (Pyrococcus furiosus, UniProt Q8U1N9;P58301 1-426;1-195+709-882, internal_change)
Assay: fluorescence polarization; 1 mM MnCl2, 0.1 mM EDTA, no ATP/Mg2+; FP: 25 nM DNA, 50 mM HEPES, 100 mM NaCl, 1 mM MnCl2, 0.1 mM EDTA, 1% glycerol, 1 mM TCEP, 0.1% PEG-6000, pH 7, 15 min room temperature; NMR at 50 C
Measure name: Kd
Answer with the figure and its unit, nothing else.

Exam item: Fill blank: measured Kd of the binder GTGTTCGGACTCTGCCTCAAGACGGTAGTCAACGTGCTTG (ssDNA) [FAM 40-mer ssDNA] is ____.
Marked response: 310 nM

Exam item: Fill blank: measured Kd of the binder FAM 40-mer dsDNA (dsDNA) DNA 1: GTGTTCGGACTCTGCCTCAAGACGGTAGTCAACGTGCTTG DNA 2: CAAGCACGTTGACTACCGTCTTGAGGCAGAGTCCGAACAC is ____.
Marked response: 2000 nM
